What CC50 was measured for each of the following?

So what CC50 did Cc1ccc([N+](=O)[O-])cc1N1C(=O)c2ccc(C(=O)O)cc2C1=O get with Vero E6 cells? > 100 µM

So what CC50 did O=C(NN=C1C(=O)Nc2ccccc21)NC1CCS(=O)(=O)C1 (racemic) get with Vero E6 cells? > 100 µM

So what CC50 did CCN1C(=O)c2cccc3c(NC(=O)c4ccc([N+](=O)[O-])s4)ccc1c23 get with Vero E6 cells? 10 µM

So what CC50 did NC(c1cc(C(F)(F)F)cc(C(F)(F)F)c1)c1cc(C(F)(F)F)cc(C(F)(F)F)c1 get with Vero E6 cells? > 100 µM

So what CC50 did O=C(O)c1ccc(N=Cc2c(O)ccc3oc4c(c23)CCCC4)cc1 get with Vero E6 cells? 76 µM

So what CC50 did CS(=O)(=O)c1ccc2c(c1)nc(C(F)(F)F)n2C1CCNCC1 get with Vero E6 cells? > 100 µM

So what CC50 did CC(=O)Nc1ccc(N2C(=O)CC(N3CC(C)OC(C)C3)C2=O)cc1 (stereo not drawn) get with Vero E6 cells? > 100 µM

So what CC50 did CC(=O)Nc1ccc2c(c1)[C@H]1C=CC[C@@H]1[C@H](c1ccc([N+](=O)[O-])cc1)N2 get with Vero E6 cells? > 100 µM

So what CC50 did CN1CCC(c2nc(-c3ccc(Cl)cc3)cc(C(F)(F)F)n2)CC1 get with Vero E6 cells? 95 µM

---

- System: human SARS-CoV Toronto-2 strain
- Assay type: cell-based
- assay-setup: 32 μM
assay-endpoint: Average Inhibition (%) at 32 μM
Give just the numeric value; % need not be written.

Reported Average Inhibition (%) at 32 μM, compound CC(=O)Nc1ccc(N2C(=O)CC(N3CC(C)OC(C)C3)C2=O)cc1 (stereo not drawn) : ____ 4

Reported Average Inhibition (%) at 32 μM, compound CN1CCC(c2nc(-c3ccc(Cl)cc3)cc(C(F)(F)F)n2)CC1 : ____ 0

Reported Average Inhibition (%) at 32 μM, compound O=C(NN=C1C(=O)Nc2ccccc21)NC1CCS(=O)(=O)C1 (racemic) : ____ 1

---

- System: human SARS-CoV Toronto-2 strain
- Type: cell-based
- assay-setup: 32 μM
What Average Inhibition (%) at 32 μM was measured for each of the following?
Give just the numeric value; % need not be written.

Reported Average Inhibition (%) at 32 μM, molecule O=C(O)c1ccc(N=Cc2c(O)ccc3oc4c(c23)CCCC4)cc1 : ____ 66

Reported Average Inhibition (%) at 32 μM, molecule CS(=O)(=O)c1ccc2c(c1)nc(C(F)(F)F)n2C1CCNCC1 : ____ 0

Reported Average Inhibition (%) at 32 μM, molecule N=C1C(=Cc2ccc3c(c2)OCO3)C(=O)C=C2SC(C(F)(F)F)=NN12 : ____ 14
